tested_on: T1, Peptide 1 (amino acid position 1-28 of the human CCR6) (human, biotinylated)
T1 construct: also called first 28 AA
T1 peptide: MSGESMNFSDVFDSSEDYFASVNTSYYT
method_description: ELISA, biotinylated peptide on a streptavidin-coated plate

{"binder": "AB3 (antibody, V domains shown, Mouse hybridoma antibody, isotype IgG1; also called AB3-N21) VH: EVNLVESGGGLVQPGGSLKLSCAASGFTFSDYYLYWVRQTPEKRLEWVTYITNGGGRTYYSDTVRGRFTISRDNAKNTLYLQMSRLKSEDTAMYYCASPPLGGAWFGYWGQGTLVTVS VL: DVLMTQTPLSLPVSLGDQASISCRSSQSIVHSNGNTYLEWYLQKPGQSPKLLIYKVSKRFSGVPDRFSGSGSGTDFTLKISRVEAEDLGVYYCFQGSHVPLTFGAGTKLELKR", "binding result": "binds"}
{"binder": "AB1 (antibody, V domains shown, Mouse hybridoma antibody, isotype IgG1; also called AB1-O17) VH: EVNLVESGGGLVQPGGSLKLSCAASGFTFSDYYMYWVRQTPEKRLEWVTYITNGDGRTYYSDTVRGRFTISRDNAKNTLYLQMSRLKSEDTAMYYCTSPPLGGAWFGYWGQGTLVTVS VL: DVLMTQTPLSLPVSLGDQASISCRSSQSIVHSNGNTYLEWYLQKPGQSPKLLIYKVSKRFSGVPDRFSGSGSGTDFTLKISRVEAEDLGVYYCFQGSHVPLTFGAGTKLELKR", "binding result": "binds"}
